Reference for the values: PubChem BioAssay

Assay: E. coli acrAB mutant growth effects, primary screen, E. coli filamentation inducers, strain DRC39, OD650, 48 h (AID 1179);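 note: screen aims at cell division blockers that make cells filament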
Settings: E. coli DRC39 delta-acrAB growth, higher = more signal, called active from +8 up or from −8 down
Quick rule: z-score of at least -0.2 means YES, below that means NO.

>  <MOLECULE>
NCCCC[C@@H]1NC(=O)[C@H]2C[C@@H](C(=O)NCc3ccc(F)cc3)[C@@H](c3ccc(O)cc3)N2C1=O

>  <LABEL CLASS>
NO

$$$$
>  <MOLECULE>
C=CCN1C(=O)[C@]2(O[C@H](CCO)[C@@H]([Si](C)(C)c3ccc(OC)cc3)[C@@H]2C)c2ccccc21

>  <LABEL CLASS>
NO

$$$$
>  <MOLECULE>
CCOC(=O)C[C@H]1[C@H](OC(=O)c2ccc(C(=O)c3ccccc3)cc2)[C@@H](NC(=O)c2ccc3ccccc3c2)c2cc(OCCCO)ccc2N1C(=O)c1ccc2ccccc2n1

>  <LABEL CLASS>
YES

$$$$
>  <MOLECULE>
C=CCN1C(=O)[C@]2(O[C@H](CCn3cc([C@H](O)c4ccccc4)nn3)[C@@H]([Si](C)(C)c3ccc(OC)cc3)[C@@H]2C)c2cc(N3C(=O)c4cccc5cccc3c45)ccc21

>  <LABEL CLASS>
YES

$$$$
>  <MOLECULE>
CCCC=C(CCC)[C@@H](NC(=O)c1ccco1)c1ccc(C(=O)OC)cc1

>  <LABEL CLASS>
NO

$$$$
>  <MOLECULE>
COC(=O)[C@@]1(Cc2ccccc2)[C@H]2c3cc(C(=O)N4CCCC4)n(Cc4ccc(C(F)(F)F)nc4)c3C[C@H]2CN1C(=O)c1ccccc1

>  <LABEL CLASS>
NO

$$$$
>  <MOLECULE>
Cc1ccc(S(=O)(=O)N2[C@@H](c3ccccc3)C(C(=O)O)=CC[C@H]2c2ccc(C#N)cc2)cc1

>  <LABEL CLASS>
NO

$$$$
>  <MOLECULE>
CC(=O)NCCCC[C@@H]1NC(=O)[C@@H]2C[C@H](C(=O)NCCCCCC[N+](C)(C)C)[C@H](c3ccc(O)cc3)N2C1=O

>  <LABEL CLASS>
NO

$$$$
>  <MOLECULE>
CCC(CC)C(O)C1C=CC2C(=O)N(C)C(=O)C2N1N1CCCCC1 (centres undefined)

>  <LABEL CLASS>
NO

$$$$
>  <MOLECULE>
O=C1NC(=O)C2C1C=CC(C(O)c1cccc(O)c1)N2Nc1ccc(Cl)cc1Cl (centres undefined)

>  <LABEL CLASS>
NO

$$$$
>  <MOLECULE>
COc1ccc([Si](C)(C)[C@@H]2[C@@H](CCO)O[C@]3(C(=O)N(Cc4ccccc4)c4ccc(N5C(=O)c6ccccc6Oc6ccccc65)cc43)[C@H]2C)cc1

>  <LABEL CLASS>
YES

$$$$
>  <MOLECULE>
CCCCN1CC=CC23O[C@@H]4/C=C\CCC(C)OC(=O)C4[C@H]2C(=O)N(C(C)CO)[C@@H]3C1=O (some centres undefined)

>  <LABEL CLASS>
YES

$$$$
>  <MOLECULE>
CC1(C)OC[C@@]23C=C(Br)[C@@H](C[C@H]12)[C@@]1(CO1)C3=O

>  <LABEL CLASS>
NO

$$$$
>  <MOLECULE>
COCCOC(=O)N1C(=O)[C@@]2(c3cc(C#Cc4ccc(OC)cc4)ccc31)[C@H](c1ccc(OCCO)cc1)N1[C@H](c3ccccc3)[C@H](c3ccccc3)OC(=O)[C@H]1[C@@H]2C(=O)N1CCCCCCC1

>  <LABEL CLASS>
YES

$$$$
